- tested target: Cytochrome P450 2A6 (Homo sapiens)
- Sequence (P11509 whole entry): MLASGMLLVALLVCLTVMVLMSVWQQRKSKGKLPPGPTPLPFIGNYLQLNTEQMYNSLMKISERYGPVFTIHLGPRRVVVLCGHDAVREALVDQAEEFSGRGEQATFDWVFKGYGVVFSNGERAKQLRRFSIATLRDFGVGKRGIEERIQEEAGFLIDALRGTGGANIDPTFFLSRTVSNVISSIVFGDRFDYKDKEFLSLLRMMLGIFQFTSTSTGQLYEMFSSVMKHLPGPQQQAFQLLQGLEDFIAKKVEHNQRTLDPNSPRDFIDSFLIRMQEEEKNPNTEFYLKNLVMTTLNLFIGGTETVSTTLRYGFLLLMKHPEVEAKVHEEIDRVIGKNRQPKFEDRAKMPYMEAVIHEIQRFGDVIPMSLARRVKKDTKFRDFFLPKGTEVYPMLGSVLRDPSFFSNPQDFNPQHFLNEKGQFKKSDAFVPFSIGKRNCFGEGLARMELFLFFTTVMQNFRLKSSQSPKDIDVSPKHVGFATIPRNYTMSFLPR
- experimental details: Binding affinity to synthetic N-terminal truncated CYP2A6 (unknown origin) assessed as occurrence of type-1 binding by spectral interaction analysis
experimental endpoint: Activity

| smi | tested target | Activity |
| --- | --- | --- |
| Cc1ccsc1-c1cccnc1 | Cytochrome P450 2A6 (Homo sapiens) | Active |
| Cc1csc(-c2cccnc2)n1 | Cytochrome P450 2A6 (Homo sapiens) | Active |
| O=Cc1ccc(-c2cccnc2)o1 | Cytochrome P450 2A6 (Homo sapiens) | Not Active |
| Cc1cscc1-c1ccccc1 | Cytochrome P450 2A6 (Homo sapiens) | Active |
| Cc1ccsc1-c1ccc(F)nc1 | Cytochrome P450 2A6 (Homo sapiens) | Active |
| CN(C)CC#Cc1cccnc1 | Cytochrome P450 2A6 (Homo sapiens) | Not Active |
| SCc1ccc(-c2cccnc2)o1 | Cytochrome P450 2A6 (Homo sapiens) | Not Active |
| CC(=O)SCc1ccc(-c2cccnc2)o1 | Cytochrome P450 2A6 (Homo sapiens) | Not Active |

Continue with the next compound.
Exercise: Item c1ccc(-c2ccsc2)cc1 has what recorded Activity?
Solution: Active

* * *

- tested target: Acetylcholine-binding protein (Lymnaea stagnalis)
- experimental details: Binding affinity to Lymnaea stagnalis nicotinic acetylcholine receptor by fluorescence based assay
- Assay type: single protein
Active and inactive are the calls of the source. No cut-off for these calls is given here.
Result category, one only: YES for active, NO for inactive

Some entries whose results are on file:
| molecule | qualitative label |
| --- | --- |
| c1cncc(-c2cccs2)c1 | YES |
| N[C@@H]1C[C@H]1c1ccccc1.N[C@H]1C[C@@H]1c1ccccc1 | YES |

Exercise: Could you kindly confirm the outcome this assay logged for Cc1cscc1-c1cccnc1 ?
Solution: YES

Exercise: Try the molecule CCC1CCC(c2cccnc2)O1 (centres undefined)
Solution: NO
